TARGET UNDER TEST: antibody G1 Fab fragment
Sequence (VH, as listed by the source, chain 1 of 2): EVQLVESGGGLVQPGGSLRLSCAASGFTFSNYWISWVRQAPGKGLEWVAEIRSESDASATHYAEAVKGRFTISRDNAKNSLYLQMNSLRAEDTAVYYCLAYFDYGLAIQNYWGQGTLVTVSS
Sequence (VL, as listed by the source, chain 2 of 2): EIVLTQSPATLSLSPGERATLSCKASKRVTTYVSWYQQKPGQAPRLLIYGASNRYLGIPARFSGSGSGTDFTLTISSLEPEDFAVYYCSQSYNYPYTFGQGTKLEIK
TEST DESCRIPTION: Biacore competition: G1 Fab (50 nM) pre-incubated 1 h with 10 µM competing peptide, then flowed over N-biotinylated human α-CGRP on SA chip; percent of binding to chip-bound human α-CGRP blocked
Ends that are not written are not given here.
Known % Binding Blocked of a selection of binders
METRIC NAME: % Binding Blocked (%)

{"BINDER": "SGGVVKNNFVPTNVGSKAF-OH (also called 19-37 (not amidated at the C-terminus)) [human α-CGRP 19-37-COOH]", "METRIC NAME": "% Binding Blocked", "TEST VALUE": 83.3}
{"BINDER": "SGGVVKNNFVPTNVGSAAF-NH2 (also: N-terminal biotin when on the chip, the entry already carries K35A) [human α-CGRP K35A (19-37)]", "METRIC NAME": "% Binding Blocked", "TEST VALUE": 100}
{"BINDER": "ACDTATCVTHRLAGLLSRSGGVVKNNFVPTNVGSKA-OH (ends and bridges not checked, also called 1-36 (not amidated at the C-terminus)) [human α-CGRP 1-36-COOH]", "METRIC NAME": "% Binding Blocked", "TEST VALUE": 40.6}
{"BINDER": "SGGVVKNNFVPTNVGSKA-OH (also called 19-36-COOH; peptide fragment 19-36) [human α-CGRP 19-36]", "METRIC NAME": "% Binding Blocked", "TEST VALUE": 0.6}

// data source = patent US20190071490A1
